# maps each entry to its pKi
target: Human Recombinant Matriptase 2 (Homo sapiens); construct: made in house; assay: Matriptase 2 inhibition, fluorescence based assay (Method I); assay type: biochemical; conditions: Table A; Ki of Matriptase-2 given as class symbols; read-out: Mat-2 Ki
Sequence (Q8IU80 whole entry): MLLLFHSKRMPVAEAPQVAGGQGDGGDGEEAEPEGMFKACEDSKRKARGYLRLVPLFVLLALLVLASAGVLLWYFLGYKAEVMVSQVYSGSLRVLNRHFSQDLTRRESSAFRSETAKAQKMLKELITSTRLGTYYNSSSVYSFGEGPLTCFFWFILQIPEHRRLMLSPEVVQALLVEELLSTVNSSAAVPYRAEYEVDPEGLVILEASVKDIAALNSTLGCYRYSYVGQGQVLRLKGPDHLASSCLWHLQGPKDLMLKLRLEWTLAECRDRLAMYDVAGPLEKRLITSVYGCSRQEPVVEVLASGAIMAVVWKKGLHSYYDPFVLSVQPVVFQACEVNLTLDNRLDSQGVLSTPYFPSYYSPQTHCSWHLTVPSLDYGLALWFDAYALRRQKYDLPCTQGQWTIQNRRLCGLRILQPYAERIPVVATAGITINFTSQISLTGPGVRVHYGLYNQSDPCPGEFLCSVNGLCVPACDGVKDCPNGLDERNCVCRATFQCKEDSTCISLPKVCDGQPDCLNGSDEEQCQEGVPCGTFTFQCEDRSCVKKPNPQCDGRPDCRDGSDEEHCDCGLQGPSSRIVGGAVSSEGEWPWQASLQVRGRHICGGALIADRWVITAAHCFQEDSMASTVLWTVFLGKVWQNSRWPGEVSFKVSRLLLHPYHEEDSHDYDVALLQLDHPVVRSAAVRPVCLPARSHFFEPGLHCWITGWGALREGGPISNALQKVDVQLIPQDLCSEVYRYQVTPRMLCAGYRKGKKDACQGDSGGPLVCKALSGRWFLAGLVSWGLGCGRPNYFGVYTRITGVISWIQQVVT
pKi: −log10 of the molar value.
QUANTITY: pKi

MOLECULE SMILES	REPORTED MEASUREMENT
CS(=O)(=O)N1CCC(CNC(=O)Nc2cc(Cn3c(C(=O)O)cc4ccc(CN)cc43)c3ccccc3c2)CC1	6.30 to 7.00
CC(C)(C)OC(=O)N1CC[C@H](S(=O)(=O)Nc2cc(Cn3c(C(=O)O)cc4ccc(CN)nc43)c3ccccc3c2)C1	6.30 to 7.00
NCc1ccc2cc(C(=O)O)n(Cc3cc(NS(=O)(=O)CC[C@@H]4CCCN4)cc4ccccc34)c2c1	6.30 to 7.00
Cc1cccc(C)c1CS(=O)(=O)Nc1cc(Cn2c(C(=O)OCC3CCN(C)CC3)cc3ccc(CN)cc32)c2ccccc2c1	≥ 7.00
NCc1ccc2cc(C(=O)O)n(Cc3cc(NS(=O)(=O)Cc4cccnc4)cc4ccccc34)c2n1	6.30 to 7.00
NCc1ccc2cc(C(=O)O)n(Cc3cc(NS(=O)(=O)Cc4cncnc4)cc4ccccc34)c2n1	6.30 to 7.00
CN1CCC[C@H]1CCS(=O)(=O)Nc1cc(Cn2c(C(=O)O)cc3ccc(CN)nc32)c2ccccc2c1	6.30 to 7.00
NCc1ccc2cc(C(=O)O)n(Cc3cc(NC(=O)N4CC5CC(C5)C4)cc4ccccc34)c2n1	5.52 to 6.30
CN(C)C(=O)N1CC[C@H](OC(=O)Nc2cc(Cn3c(C(=O)O)cc4ccc(CN)nc43)c3ccccc3c2)C1	5.52 to 6.30
CC(C)OC(=O)c1cc2ccc(CN)nc2n1Cc1cc(NS(=O)(=O)CC[C@@H]2CCCN2)cc2ccccc12	5.52 to 6.30
CC(C)(C)n1cncc1COC(=O)c1cc2ccc(CN)cc2n1Cc1cc(NS(=O)(=O)Cc2ccsc2)cc2ccccc12	6.30 to 7.00
CCOC(=O)c1cc2ccc(CNC(=O)c3ccccc3COC(C)=O)nc2n1Cc1cc(NS(=O)(=O)Cc2ccccc2)cc2ccccc12	5.52 to 6.30
COCCN1CCN(C(=O)Nc2cc(Cn3c(C(N)=O)cc4ccc(CN)nc43)c3ccccc3c2)CC1	6.30 to 7.00
CN1CCC(COC(=O)c2cc3ccc(CN)nc3n2Cc2cc(NS(=O)(=O)Cc3ccccc3C(F)(F)F)cc3ccccc23)CC1	≥ 7.00
CN1CCC(COC(=O)c2cc3ccc(CN)nc3n2Cc2cc(NS(=O)(=O)Cc3ccccc3F)cc3ccccc23)CC1	≥ 7.00
NCc1ccc2cc(C(=O)O)n(Cc3cc(NS(=O)(=O)Cc4cccc(F)c4)cc4ccccc34)c2n1	6.30 to 7.00
CN1CCC(COC(=O)c2cc3ccc(CN)nc3n2Cc2cc(NS(=O)(=O)Cc3cnsc3)cc3ccccc23)CC1	≥ 7.00
Cc1cccc(C)c1CS(=O)(=O)Nc1cc(Cn2c(C(=O)NCCC3CCN(C)CC3)cc3ccc(CN)cc32)c2ccccc2c1	≥ 7.00
CN1CCC(c2nnc(-c3cc4ccc(CN)nc4n3Cc3cc(NS(=O)(=O)Cc4ccccc4)cc4ccccc34)o2)CC1	≥ 7.00
CC(C)(C)S(=O)(=O)N1CCC(CNC(=O)Nc2cc(Cn3c(C(=O)O)cc4ccc(CN)nc43)c3ccccc3c2)CC1	6.30 to 7.00
NCc1ccc2cc(C(=O)O)n(Cc3cc(NS(=O)(=O)CCn4cnnn4)cc4ccccc34)c2n1	6.30 to 7.00
NCc1ccc2cc(-c3nnn[nH]3)n(Cc3cc(NS(=O)(=O)Cc4ccccc4)cc4ccccc34)c2n1	≥ 7.00

Reference source: patent US20240400553A1
